- System: chickweed (Stellaria media)
- protocol_description: Test B postemergence plant response
- Assay type: in vivo
- assay_context: 31 g ai/ha, postemergence; scale 0 to 100, 0 is no effect, 100 is complete control
- Description: […] Treated plants and controls were maintained in a greenhouse for 13 to 15 days, after which time all treated plants were visually evaluated and compared to controls. […]
quantity_measured: Plant response rating, Chickweed
The answer should be written as a number, with no unit following it.

Query string: # Plant response rating, Chickweed lookup, item CCCCCCn1c(-c2ccccc2)ncc(C(=O)C2=C(O)CCCC2=O)c1=O [Compound 94]
Result string: 95

Query string: Request the reported Plant response rating, Chickweed associated with Cc1ccc(F)c(-n2c(-c3ccccc3)ncc(C(=O)C3=C(O)CCCC3=O)c2=O)c1 [Compound 51]
Result string: 80

Query string: Would you kindly share the measured Plant response rating, Chickweed for O=C1CCCC(O)=C1C(=O)c1cnc(-c2ccccc2)n(C2CC2)c1=O [Compound 90] ?
Result string: 70

Query string: Using the record for O=C1CCCC(O)=C1C(=O)c1cnc(-c2ccsc2)n(CC2CCCO2)c1=O (stereo not drawn) [Compound 98] , report its Plant response rating, Chickweed.
Result string: 80

Query string: Entry under review: CCCn1c(-c2cccc(OC)c2)ncc(C(=O)C2=C(O)CCCC2=O)c1=O [Compound 100] . Reported Plant response rating, Chickweed?
Result string: 75

Query string: For the molecule O=C1CCCC(O)=C1C(=O)c1cnc(-c2cccs2)n(-c2ccccc2)c1=O [Compound 66] , what Plant response rating, Chickweed is on record?
Result string: 80

Query string: Give its Plant response rating, Chickweed value. Item: O=C1CCCC(O)=C1C(=O)c1cnc(C2CCCC2)n(-c2ccccc2)c1=O [Compound 92]
Result string: 90

Query string: If you can, please state the reported Plant response rating, Chickweed value of O=C1CCCC(O)=C1C(=O)c1cnc(-c2ccsc2)n(C2CCCCC2)c1=O [Compound 99] .
Result string: 80

Query string: Recorded Plant response rating, Chickweed for CCOCCn1c(-c2ccccc2)ncc(C(=O)C2=C(O)CCCC2=O)c1=O [Compound 96] , please?
Result string: 75
